target: D(1A) dopamine receptor (Homo sapiens, UniProt P21728); assay: Displacement of [3H]SCH 23390 from dopamine D1 receptor expressed in CHO cells
Sequence (P21728 whole entry): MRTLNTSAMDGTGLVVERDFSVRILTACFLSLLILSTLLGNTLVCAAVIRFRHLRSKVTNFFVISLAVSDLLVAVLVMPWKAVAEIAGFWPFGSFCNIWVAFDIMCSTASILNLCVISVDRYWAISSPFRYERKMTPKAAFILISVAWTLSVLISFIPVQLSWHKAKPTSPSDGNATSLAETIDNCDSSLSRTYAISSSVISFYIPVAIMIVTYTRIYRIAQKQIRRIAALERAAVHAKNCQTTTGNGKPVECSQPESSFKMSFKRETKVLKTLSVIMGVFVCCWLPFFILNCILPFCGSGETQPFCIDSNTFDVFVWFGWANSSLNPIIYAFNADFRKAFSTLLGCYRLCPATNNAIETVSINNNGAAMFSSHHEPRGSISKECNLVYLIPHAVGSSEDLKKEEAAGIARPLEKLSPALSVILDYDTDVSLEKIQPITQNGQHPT
pKi: −log10 of the molar value.
The molecules listed here are annotated with their pKi.
Reported property: pKi

1) O=C(NN1c2ccc(Cl)cc2N=C(N2CCN(Cc3cccc4c3OC(F)(F)O4)CC2)c2ccccc21)c1ccccc1Cl :: 5.32
2) FC(F)(F)Oc1cccc(CN2CCN(C3=Nc4cc(Cl)ccc4Nc4ccccc43)CC2)c1 :: 5.42
3) O=C(NN1c2ccc(Cl)cc2N=C(N2CCN(Cc3ccc(F)cc3F)CC2)c2ccccc21)c1ccccc1Cl :: 6.05

* * *

target: D(1A) dopamine receptor (Homo sapiens, UniProt P21728); assay: Displacement of [3H]SCH 23390 from dopamine D1 receptor expressed in CHO cells
Please note: Ki exactly at 20 nM is NO. Only values below 20 nM get YES.

1. CN1CCN(C2=Nc3cc(Cl)ccc3N(NC(=O)c3ccc(C#N)cc3)c3ccccc32)CC1 :: NO
2. COc1cccc(OC)c1C(=O)NN1c2ccccc2N=C(N2CCN(C)CC2)c2cc(Cl)ccc21 :: YES
3. CN1CCN(C2=Nc3ccccc3N(NC(=O)c3cc(F)ccc3C(F)(F)F)c3ccc(Cl)cc32)CC1 :: NO
4. CC(C)(C)CN1CCN(C2=Nc3cc(Cl)ccc3N(NC(=O)c3ccccc3Cl)c3ccccc32)CC1 :: NO

* * *

molecular target: UniProt:P21728; assay: Displacement of [3H]SCH 23390 from dopamine D1 receptor expressed in CHO cells
pKi: −log10 of the molar value.
pKi vs 7: at or above is criterion met, below is criterion not met.

1) COc1cccc(OC)c1C(=O)NN1c2ccc(Cl)cc2N=C(N2CCN(C)CC2)c2cc(Cl)ccc21 :: criterion met
2) Cc1ccc(CN2CCN(C3=Nc4cc(Cl)ccc4Nc4ccccc43)CC2)c(C)c1 :: criterion not met
3) O=C(NN1c2ccc(Cl)cc2N=C(N2CCN(Cc3cccc(OC(F)(F)F)c3)CC2)c2ccccc21)c1ccccc1Cl :: criterion not met
4) COc1ccccc1C(=O)NN1c2ccc(Cl)cc2N=C(N2CCN(C)CC2)c2ccccc21 :: criterion met
5) CCC(CC)CN1CCN(C2=Nc3cc(Cl)ccc3N(NC(=O)c3ccccc3Cl)c3ccccc32)CC1 :: criterion not met
6) CN1CCN(C2=Nc3cc(Cl)ccc3N(C(=O)Nc3cc(Cl)cc(Cl)c3)c3ccccc32)CC1 :: criterion not met

* * *

target: D(2) dopamine receptor (Homo sapiens, UniProt P14416); assay: Displacement of [3H]methylspiperone from dopamine D2 receptor expressed in CHO cells
Sequence (P14416 whole entry): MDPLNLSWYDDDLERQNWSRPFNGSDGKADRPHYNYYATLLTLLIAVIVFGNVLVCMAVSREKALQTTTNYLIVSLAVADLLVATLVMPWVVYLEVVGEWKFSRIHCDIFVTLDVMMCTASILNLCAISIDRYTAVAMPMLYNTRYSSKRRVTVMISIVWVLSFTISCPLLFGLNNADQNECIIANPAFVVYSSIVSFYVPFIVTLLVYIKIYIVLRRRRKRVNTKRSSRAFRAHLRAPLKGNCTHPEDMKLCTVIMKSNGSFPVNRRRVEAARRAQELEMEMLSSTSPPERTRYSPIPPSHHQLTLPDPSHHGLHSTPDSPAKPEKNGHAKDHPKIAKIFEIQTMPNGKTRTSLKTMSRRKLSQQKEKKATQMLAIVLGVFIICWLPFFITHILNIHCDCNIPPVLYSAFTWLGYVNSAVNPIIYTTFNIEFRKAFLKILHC
Reported property: Ki (µM)

1. CN1CCN(C2=Nc3cc(Cl)ccc3N(NC(=O)c3cccc(C#N)c3)c3ccccc32)CC1 :: 3.65
2. COc1ccccc1C(=O)NN1c2ccc(Cl)cc2N=C(N2CCN(C)CC2)c2ccccc21 :: 1.13
3. CN1CCN(C2=Nc3cc(Cl)ccc3N(NC(=O)c3ccc(F)cc3C(F)(F)F)c3ccccc32)CC1 :: 1.62
4. CN1CCN(C2=Nc3ccccc3N(NC(=O)c3cccc(C#N)c3)c3ccc(Cl)cc32)CC1 :: 1.19
5. Cc1ccc(S(=O)(=O)N2c3ccc(Cl)cc3N=C(N3CCN(C)CC3)c3ccccc32)cc1 :: 0.338
6. CN1CCN(C2=Nc3cc(Cl)ccc3N(C(=O)Nc3cc(Cl)cc(Cl)c3)c3ccccc32)CC1 :: 3.9
7. CN1CCN(C2=Nc3cc(Cl)ccc3N(NC(=O)c3cccnc3)c3ccccc32)CC1 :: 12.7
8. CN1CCN(C2=Nc3cc(Cl)ccc3N(NC(=O)c3cccc(C#N)c3)c3ccc(Cl)cc32)CC1 :: 0.175
9. Cc1ccccc1C(=O)NN1c2ccc(Cl)cc2N=C(N2CCN(C)CC2)c2cc(Cl)ccc21 :: 0.175
10. COc1cc(C(=O)NN2c3ccccc3N=C(N3CCN(C)CC3)c3cc(Cl)ccc32)cc(OC)c1OC :: 3.23
11. CN1CCN(C2=Nc3cc(Cl)ccc3N(NC(=O)c3ccccc3Br)c3ccccc32)CC1 :: 0.792
12. Cc1ccccc1C(=O)NN1c2ccccc2N=C(N2CCN(C)CC2)c2cc(Cl)ccc21 :: 1.57
13. CN1CCN(C2=Nc3cc(Cl)ccc3N(NC(=O)c3ccccc3I)c3ccc(Cl)cc32)CC1 :: 0.036
14. COc1cc(C(=O)NN2c3ccc(Cl)cc3N=C(N3CCN(C)CC3)c3ccccc32)cc(OC)c1OC :: 5.56
15. CN1CCN(C2=Nc3cc(Cl)ccc3N(NC(=O)c3ccc4c(c3)OCO4)c3ccccc32)CC1 :: 0.828
16. Cc1ccccc1S(=O)(=O)N1c2ccc(Cl)cc2N=C(N2CCN(C)CC2)c2ccccc21 :: 0.063

* * *

biological target: D(2) dopamine receptor (Homo sapiens); assay: Displacement of [3H]methylspiperone from dopamine D2 receptor expressed in CHO cells
pKi: −log10 of the molar value.
Reported property: pKi

1. CN1CCN(C2=Nc3cc(Cl)ccc3N(NC(=O)c3ccncc3)c3ccccc32)CC1 :: 4.55
2. Clc1ccc2c(c1)N=C(N1CCN(Cc3cccc4c3OCO4)CC1)c1ccccc1N2 :: 7.10
3. Cc1ccccc1C(=O)N1c2ccc(Cl)cc2N=C(N2CCN(C)CC2)c2ccccc21 :: 5.31
4. Fc1ccc(CN2CCN(C3=Nc4cc(Cl)ccc4Nc4ccccc43)CC2)c(F)c1 :: 6.75
5. CN1CCN(C2=Nc3ccccc3N(NC(=O)c3ccc(C#N)cc3)c3ccc(Cl)cc32)CC1 :: 5.71
6. CN1CCN(C2=Nc3ccccc3N(NC(=O)c3ccccc3I)c3ccc(Cl)cc32)CC1 :: 6.64

* * *

target: UniProt P21728; assay: Displacement of [3H]SCH 23390 from dopamine D1 receptor expressed in CHO cells
pKi: −log10 of the molar value.
The molecules listed here are annotated with their pKi.
Reported property: pKi

1) Cc1ccccc1S(=O)(=O)N1c2ccc(Cl)cc2N=C(N2CCN(C)CC2)c2ccccc21 :: 7.15
2) Fc1ccc(CN2CCN(C3=Nc4cc(Cl)ccc4Nc4ccccc43)CC2)c(F)c1 :: 6.08
3) CN1CCN(C2=Nc3cc(Cl)ccc3N(NC(=O)c3cccc(C#N)c3)c3ccccc32)CC1 :: 7.21
4) CN1CCN(C2=Nc3cc(Cl)ccc3N(NC(=O)c3cc(F)c(F)c(F)c3F)c3ccccc32)CC1 :: 7.49
5) Cc1ccccc1C(=O)NN1c2ccccc2N=C(N2CCN(C)CC2)c2cc(Cl)ccc21 :: 7.32
6) CN1CCN(C2=Nc3cc(Cl)ccc3N(NC(=O)c3ccc(F)cc3C(F)(F)F)c3ccccc32)CC1 :: 7.31
7) Cc1ccccc1C(=O)N1c2ccc(Cl)cc2N=C(N2CCN(C)CC2)c2ccccc21 :: 5.91
8) O=C(NN1c2ccc(Cl)cc2N=C(N2CCN(Cc3ccccc3F)CC2)c2ccccc21)c1ccccc1Cl :: 6.30
9) Cc1ccc(CN2CCN(C3=Nc4cc(Cl)ccc4N(NC(=O)c4ccccc4Cl)c4ccccc43)CC2)c(C)c1 :: 5.96

* * *

biological target: D(1A) dopamine receptor (Homo sapiens, UniProt P21728); test: Displacement of [3H]SCH 23390 from dopamine D1 receptor expressed in CHO cells; format: cell-based
pKi: −log10 of the molar value.
The compounds listed here are annotated with their pKi.
Reported property: pKi

1. CN1CCN(C2=Nc3cc(Cl)ccc3N(NC(=O)c3cccnc3)c3ccccc32)CC1 :: 7.07
2. CCCN1CCN(C2=Nc3cc(Cl)ccc3N(NC(=O)c3ccccc3Cl)c3ccccc32)CC1 :: 7.59
3. Cc1ccccc1C(=O)NN1c2ccc(Cl)cc2N=C(N2CCN(C)CC2)c2cc(Cl)ccc21 :: 8.70
4. Clc1ccc2c(c1)N=C(N1CCN(Cc3cccc4c3OCO4)CC1)c1ccccc1N2 :: 6.20
5. CN1CCN(C2=Nc3cc(Cl)ccc3N(NC(=O)c3cccc(F)c3F)c3ccccc32)CC1 :: 7.80

* * *

The compounds listed here are annotated with their pKi.
target: UniProtKB P14416; assay: Displacement of [3H]methylspiperone from dopamine D2 receptor expressed in CHO cells
pKi: −log10 of the molar value.
Reported property: pKi

1) COc1cccc(C(=O)NN2c3ccccc3N=C(N3CCN(C)CC3)c3cc(Cl)ccc32)c1 :: 5.86
2) COc1cccc(OC)c1C(=O)NN1c2ccccc2N=C(N2CCN(C)CC2)c2cc(Cl)ccc21 :: 6.71
3) COc1ccccc1CNN1c2ccc(Cl)cc2N=C(N2CCN(C)CC2)c2ccccc21 :: 6.69
4) CC(C)N1CCN(C2=Nc3cc(Cl)ccc3N(NC(=O)c3ccccc3Cl)c3ccccc32)CC1 :: 6.00
5) CN1CCN(C2=Nc3cc(Cl)ccc3N(NC(=O)c3cc(F)c(F)c(F)c3F)c3ccccc32)CC1 :: 5.89
6) CN1CCN(C2=Nc3cc(Cl)ccc3N(NC(=O)c3ccc4c(c3)OCO4)c3ccc(Cl)cc32)CC1 :: 6.54
7) CN1CCN(C2=Nc3ccccc3N(NC(=O)c3cc(F)c(F)c(F)c3F)c3ccc(Cl)cc32)CC1 :: 6.12
8) COc1cccc(OC)c1C(=O)NN1c2ccc(Cl)cc2N=C(N2CCN(C)CC2)c2cc(Cl)ccc21 :: 7.01
9) FC1(F)Oc2cccc(CN3CCN(C4=Nc5cc(Cl)ccc5Nc5ccccc54)CC3)c2O1 :: 8.10
